Where these numbers come from: paper PMC12714728

- Assay name: In vitro cell permeability / P-gp substrate assay
- Details: LLC-PK1, Papp BA, LLC-MDR1, basolateral to apical, + 5 µM GF120918
Value kind: Papp B→A (×10⁻⁶ cm/s)
Write it as a number; the unit ×10⁻⁶ cm/s goes unstated.

Record CSCC[C@@H]1NC(=O)CNC(=O)CNC(=O)[C@H](C)NC(=O)[C@H](C(C)C)NC(=O)CNC(=O)[C@H](CC(C)C)NC(=O)[C@@H]2CCCN2C(=O)[C@H](CC(=O)O)NC(=O)[C@H](CCC(=O)O)NC(=O)[C@H](Cc2ccc(O)cc2)NC(=O)[C@H](CC(C)C)NC(=O)[C@H](CO)NC(=O)[C@H](C(C)C)NC(=O)[C@H]2CCCN2C(=O)[C@@H]2CCCN2C(=O)[C@H](Cc2ccc(O)cc2)NC(=O)[C@H](C(C)C)NC(=O)CNC1=O , field Papp B→A: 0.32
